Read-out: Vascular cell adhesion molecule 1 (VCAM1), VCAM1 (gene 7412)
Experiment: BSK_hDFCGF_VCAM1: BioMAP Diversity Plus: hDFCGF Assay for Vascular cell adhesion molecule 1 (VCAM1) Biomarker Activity (AID 2283065)
Details: primary human foreskin fibroblasts; actives raise or lower the signal
Active and inactive are the calls of the source. The calls were made as follows: active = hit-call score of the fitted dose curve at least 0.9, where 1 is the maximum; inactive = score below 0.9.
Give one outcome, nothing more. List: active, inactive

Example cases with answers are listed next.
1) CCc1cccc(C)c1N(C(=O)CCl)C(C)COC (configuration not stated) :: inactive
2) COP(=O)(OC)SCn1c(=O)oc2cc(Cl)cnc21 :: active
3) Cc1nn(-c2cc(NS(C)(=O)=O)c(Cl)cc2Cl)c(=O)n1C(F)F :: inactive
4) O=C(O)c1cc(Oc2ccc(C(F)(F)F)cc2Cl)ccc1[N+](=O)[O-] :: inactive
5) COc1cccc(C(=O)NN(C(=O)c2cc(C)cc(C)c2)C(C)(C)C)c1C :: inactive
6) CNc1cnn(-c2cccc(C(F)(F)F)c2)c(=O)c1Cl :: inactive
7) CCOP(=S)(OCC)SCCSCC :: active
8) Cc1cc(C2CC2)nc(Nc2ccccc2)n1 :: inactive
9) C[N+]1(C)CCCCC1 :: inactive
10) COc1ccc(C(=CC(=O)N2CCOCC2)c2ccc(Cl)cc2)cc1OC :: inactive

Which outcome did this test record for the molecule CCCSP(=O)(OCC)Oc1ccc(Br)cc1Cl (configuration not stated) ? active

Given CCOC(=O)COc1cc(-c2nn(C)c(OC(F)F)c2Cl)c(F)cc1Cl , state the outcome it received in this test. inactive

----------
Biological target: rat Acetylcholinesterase (AChE), Ache (gene 83817) (UniProt P37136)
Sequence (P37136 whole entry, looked up): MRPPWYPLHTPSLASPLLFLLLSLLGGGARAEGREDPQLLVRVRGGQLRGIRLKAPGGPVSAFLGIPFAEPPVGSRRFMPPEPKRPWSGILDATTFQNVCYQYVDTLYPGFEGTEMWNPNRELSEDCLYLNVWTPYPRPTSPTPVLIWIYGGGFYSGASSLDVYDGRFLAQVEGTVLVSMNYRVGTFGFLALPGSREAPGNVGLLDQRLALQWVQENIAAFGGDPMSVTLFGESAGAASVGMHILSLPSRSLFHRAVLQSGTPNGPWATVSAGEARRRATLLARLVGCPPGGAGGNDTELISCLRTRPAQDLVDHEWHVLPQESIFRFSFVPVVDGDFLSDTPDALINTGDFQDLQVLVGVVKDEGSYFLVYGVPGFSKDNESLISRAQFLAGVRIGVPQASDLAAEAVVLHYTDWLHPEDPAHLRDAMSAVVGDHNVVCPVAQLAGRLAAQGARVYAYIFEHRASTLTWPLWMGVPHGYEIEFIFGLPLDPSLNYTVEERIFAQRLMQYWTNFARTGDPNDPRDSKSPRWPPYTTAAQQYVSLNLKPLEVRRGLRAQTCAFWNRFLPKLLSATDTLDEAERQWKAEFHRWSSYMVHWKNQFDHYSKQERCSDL
Experiment: NVS_ENZ_rAChE: NovaScreen (NVS) Enzymatic Assay for rat Acetylcholinesterase (AChE) (AID 2283233)
Records with an inconclusive call do not appear. Active and inactive are the calls of the source. The calls were made as follows: active = hit-call score of the fitted dose curve at least 0.9, where 1 is the maximum; inconclusive = response in the unintended direction; inactive = score below 0.9.
// classify into yes = active, no = inactive

The examples below pair each entry with its known result.
1. CCOC(=O)CC(SP(=O)(OC)OC)C(=O)OCC (configuration not stated) :: yes
2. COP(=O)(OC)SCn1c(=O)oc2cc(Cl)cnc21 :: yes
3. CC(=NC#N)N(C)Cc1ccc(Cl)nc1 :: no
4. CNC(=O)ON=C(SC)C(=O)N(C)C :: yes
5. O=[N+]([O-])c1cc(C(F)(F)F)c(Cl)c([N+](=O)[O-])c1Nc1ncc(C(F)(F)F)cc1Cl :: no

Which outcome did this test record for the compound COP(=O)(OC)OC(Br)C(Cl)(Cl)Br (configuration not stated) ? yes

Entry CNC(=O)ON=C(C)SC : call = ? yes

----------
Read-out: Urokinase-type plasminogen activator receptor (uPAR), PLAUR (gene 5329)
Assay: BSK_4H_uPAR: BioMAP Diversity Plus: 4H Assay for Urokinase-type plasminogen activator receptor (uPAR) Biomarker Activity (AID 2283030)
Conditions: primary human endothelial cells (HUVEC); actives raise or lower the signal
Active and inactive are the calls of the source. Rule for the calls: active = hit-call score of the fitted dose curve at least 0.9, where 1 is the maximum; inactive = score below 0.9.
Outcome field: choose from yes for active, no for inactive

1) CCCCN(CC)c1c([N+](=O)[O-])cc(C(F)(F)F)cc1[N+](=O)[O-] :: no

Assay outcome for Cc1cc(C2CC2)nc(Nc2ccccc2)n1 : what was it? no

Record lookup: outcome of this test for CCOP(=S)(OCC)Oc1ccc2c(C)c(Cl)c(=O)oc2c1 ? no

// param item: Nc1nc(N)nc(NC2CC2)n1 ; yields the recorded call no

Kindly provide the recorded test outcome for the following compound: CCCOc1nn(C(=O)NS(=O)(=O)c2ccccc2C(=O)OC)c(=O)n1C no

So what was the verdict on COP(=O)(OC)OC(Br)C(Cl)(Cl)Br (stereo not drawn) in this test? yes

Which result was noted for this compound in the test: FC(F)C(F)(F)OCC(Cn1cncn1)c1ccc(Cl)cc1Cl (stereo not drawn) yes

Give the logged outcome of this assay for the following compound: CC1=NNC(=O)N(/N=C/c2cccnc2)C1 no

----------
Read-out: Pyruvate Dehydrogenase Kinase 4 (PDK4), PDK4 (gene 5166)
Assay: LTEA_HepaRG_PDK4: Life Technologies and Expression Analysis (LTEA) Assay for Pyruvate Dehydrogenase Kinase 4 (PDK4) using HepaRG (AID 2283525)
Conditions: mRNA level, 48 h; actives raise or lower the signal
Calls of active or inactive are those of the source. The calls were made as follows: active = hit-call score of the fitted dose curve at least 0.9, where 1 is the maximum; inactive = score below 0.9.
I would appreciate it if you answered using one of these outcomes: yes (1) = active, no (0) = inactive

Worked examples, 2 compounds total:
1) CON=C(C(=O)OC)c1ccccc1CON=C(C)c1cccc(C(F)(F)F)c1 :: no (0)
2) CCOP(=O)(OCC)Oc1cc(C)nc(C(C)C)n1 :: no (0)

Short answer needed: outcome of this test for Cc1ccn2nc(S(=O)(=O)Nc3c(F)cccc3F)nc2n1 ? no (0)

Hey, what did the test say about CCc1cnc(C2=NC(C)(C(C)C)C(=O)N2)c(C(=O)O)c1 (centres undefined) ? no (0)

Test call, this compound: CCCSP(=O)(OCC)SCCC no (0)

----------
Assay: CCTE_Shafer_MEA_acute_burst_percentage_std: CCTE's Neural Acute Assay for Standard Deviation of Burst Percentage, Shafer Lab (AID 2284018);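 also: fitted in the negative direction so actives lower burst percentage SD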
Calls of active or inactive are those of the source. How the source made its calls: active means hit-call score of the fitted dose curve at least 0.9, where 1 is the maximum; inactive means score below 0.9.
Log the outcome using a class from TRUE (active), FALSE (inactive)

Kindly provide the recorded test outcome for the following compound: FC(F)C(F)(F)OCC(Cn1cncn1)c1ccc(Cl)cc1Cl (stereo not drawn) FALSE

----------
Read-out: xenobiotic metabolism (CYP1A2), CYP1A2 (gene 1544)
Test: CLD_CYP1A2_24hr: CellzDirect (CLD) Gene Expression Assay for xenobiotic metabolism (CYP1A2) at 24 hours (AID 2283683)
Records with an inconclusive call do not appear. Activity calls are given as the source filed them. The calls were made as follows: active = hit-call score of the fitted dose curve at least 0.9, where 1 is the maximum; inconclusive = response in the unintended direction; inactive = score below 0.9.
Permitted responses: y = active, n = inactive

As a guide, the following entries are already answered.
1. CCCCOC(=O)c1ccccc1C(=O)O :: n
2. CCOP(=S)(OCC)OC(Cl)C(Cl)(Cl)Cl (stereo unspecified) :: y
3. CN1COCN(Cc2cnc(Cl)s2)C1=N[N+](=O)[O-] :: n
4. CCCSP(=O)(OCC)Oc1ccc(Br)cc1Cl (stereo unspecified) :: y
5. CCOC(=O)COc1cc(-c2nn(C)c(OC(F)F)c2Cl)c(F)cc1Cl :: n

# ---- query compound ----
Write down the call the test reported for this compound. Item: Cc1ccn2nc(S(=O)(=O)Nc3c(F)cccc3F)nc2n1 n

----------
Read-out: Vascular cell adhesion molecule 1 (VCAM1), VCAM1 (gene 7412)
Test: BSK_LPS_VCAM1: BioMAP Diversity Plus: LPS Assay for Vascular cell adhesion molecule 1 (VCAM1) Biomarker Activity (AID 2283086)
Settings: primary human HUVEC with PBMC; actives raise or lower the signal
Calls of active or inactive are those of the source. The calls were made as follows: active = hit-call score of the fitted dose curve at least 0.9, where 1 is the maximum; inactive = score below 0.9.
readout-label: AC50

The cases that follow already have their AC50 on record.
1. CCOP(=O)(NC(C)C)Oc1ccc(SC)c(C)c1 (configuration not stated) :: inactive
2. COc1ccc(C(=CC(=O)N2CCOCC2)c2ccc(Cl)cc2)cc1OC :: inactive
3. CCOP(=S)(OCC)SCCSCC :: inactive
4. CCOP(=S)(OCC)Oc1ccc([N+](=O)[O-])cc1 :: 20 µM (active)
5. FC(F)C(F)(F)OCC(Cn1cncn1)c1ccc(Cl)cc1Cl (configuration not stated) :: 32.8 µM (active)

Tell us which AC50 value is on record for CSc1nc(NC(C)C)nc(NC(C)C)n1 inactive

Give AC50 for the following molecule: S=C1NCCN1 inactive

----------
Read-out: organic anion transporter (SLCO1B1), SLCO1B1 (gene 10599)
Experiment: CLD_SLCO1B1_48hr: CellzDirect (CLD) Gene Expression Assay for organic anion transporter (SLCO1B1) at 48 hours (AID 2283707)
Records with an inconclusive call do not appear. Activity calls are given as the source filed them. Rule for the calls: active = hit-call score of the fitted dose curve at least 0.9, where 1 is the maximum; inconclusive = response in the unintended direction; inactive = score below 0.9.
readout-label: outcome

Worked examples, 4 compounds total:
1. CCCCOC(=O)c1ccccc1C(=O)O :: inactive
2. C[N+]1(C)CCCCC1 :: inactive
3. CC(=NC#N)N(C)Cc1ccc(Cl)nc1 :: inactive
4. Nc1c(Cl)cc([N+](=O)[O-])cc1Cl :: inactive

Provide measured outcome value, entry: CCCSP(=O)(OCC)Oc1ccc(Br)cc1Cl (stereo not given) inactive

Give outcome for the following compound: CCC(CC)Nc1c([N+](=O)[O-])cc(C)c(C)c1[N+](=O)[O-] inactive

Find the measured outcome of COc1cc(OC)nc(Sc2cccc(Cl)c2C(=O)O)n1 and report it. inactive

Quick one: give measured outcome for S=C1NCCN1 inactive

Given O=c1ccc(=O)[nH][nH]1 , respond with its outcome. inactive

----------
Assay: APR_HepG2_MitoticArrest_1hr: Apredica 1-hour HepG2 Assay for Mitotic Arrest (AID 2282672)
Conditions: high-content imaging, actives raise or lower the signal
Method: APR_HepG2_1hr is a cell-based, multiplexed-readout assay that uses HepG2, a human liver cell line, with measurements taken at 1 hour after chemical dosing in a 384-well plate.APR_HepG2_MitoticArrest_1hr is one of 10 assay component(s) measured or calculated from the APR_HepG2_1hr assay. […] This assay endpoint, APR_HepG2_MitoticArrest_1hr, was analyzed with bidirectional fitting relative to DMSO as the negative control and baseline of activity. […]
Active and inactive are the calls of the source. Rule for the calls: active = hit-call score of the fitted dose curve at least 0.9, where 1 is the maximum; inactive = score below 0.9.
readout-label: outcome

Example results:
1) CC(COc1ccc(Oc2ccccc2)cc1)Oc1ccccn1 (configuration not stated) :: inactive
2) CCNc1nc(Cl)nc(NC(C)(C)C#N)n1 :: inactive
3) CCCCOC(=O)c1ccccc1C(=O)O :: inactive
4) CC(C)N(C(=O)SCC(Cl)=C(Cl)Cl)C(C)C :: inactive
5) CCCSP(=O)(OCC)SCCC :: inactive
6) O=[N+]([O-])c1cc(C(F)(F)F)c(Cl)c([N+](=O)[O-])c1Nc1ncc(C(F)(F)F)cc1Cl :: inactive
7) CNC(=O)ON=C(C)SC :: inactive
8) CCOP(=S)(OCC)Oc1cc(C)nc(C(C)C)n1 :: inactive
9) COP(=O)(NC(C)=O)SC (configuration not stated) :: inactive
10) CN1COCN(Cc2cnc(Cl)s2)C1=N[N+](=O)[O-] :: inactive

Let me know recorded outcome for Nc1c(Cl)cc([N+](=O)[O-])cc1Cl , thanks. inactive

Quote outcome reported for CON=C(C(=O)OC)c1ccccc1CON=C(C)c1cccc(C(F)(F)F)c1 please. inactive

Give recorded outcome. CCOP(=S)(OCC)Oc1ccc([N+](=O)[O-])cc1 inactive
